- Target or system: human Nurr1 (Homo sapiens, UniProt P43354)
- Sequence (P43354 360-595 limits assumed): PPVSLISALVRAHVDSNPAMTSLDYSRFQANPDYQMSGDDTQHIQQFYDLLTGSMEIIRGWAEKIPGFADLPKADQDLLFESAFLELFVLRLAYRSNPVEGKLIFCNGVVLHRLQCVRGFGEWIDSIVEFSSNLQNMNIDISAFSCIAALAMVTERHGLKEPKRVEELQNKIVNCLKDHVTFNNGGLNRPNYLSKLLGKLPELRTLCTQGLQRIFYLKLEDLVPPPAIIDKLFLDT
- Procedure summary: Hybrid Gal4-Nurr1 reporter gene assay in HEK293T cells
- Experimental setup: 3 μM
Measurement type: Fold Activation @ 3 μM

>>> value_reported("C#CCOc1cccc(-c2c(F)c(F)c(NC(=O)c3ccsc3C(=O)O)c(F)c2F)c1 [6/17]")
"+++ (+++: ≥3-fold)"
>>> value_reported("[2H]C([2H])([2H])Oc1cccc(-c2c(F)cc(NC(=O)c3ccsc3C(=O)O)cc2F)c1 [6/8]")
"+++ (+++: ≥3-fold)"

---

- Target or system: hDHODH (Homo sapiens)
- Construct: measured using an N-terminally truncated recombinant hDHODH enzyme
- Sequence (Q02127 29-395): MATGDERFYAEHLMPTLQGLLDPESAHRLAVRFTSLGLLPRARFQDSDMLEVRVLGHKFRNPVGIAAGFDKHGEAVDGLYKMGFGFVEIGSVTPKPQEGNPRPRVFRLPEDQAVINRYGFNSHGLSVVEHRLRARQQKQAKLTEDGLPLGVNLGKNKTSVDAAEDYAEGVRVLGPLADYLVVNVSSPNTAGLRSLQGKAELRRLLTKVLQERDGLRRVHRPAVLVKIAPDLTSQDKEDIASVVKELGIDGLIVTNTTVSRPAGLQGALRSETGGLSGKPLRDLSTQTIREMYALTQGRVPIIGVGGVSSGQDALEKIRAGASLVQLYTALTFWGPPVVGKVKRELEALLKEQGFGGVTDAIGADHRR
- Procedure summary: in vitro inhibition of hDHODH
Measurement type: IC50

>>> value_reported("[2H]C([2H])([2H])Oc1cccc(-c2c(F)c(F)c(NC(=O)c3ccsc3C(=O)NCC#N)c(F)c2F)c1 [6/39]")
"100 to 1000 nM"
>>> value_reported("[2H]C([2H])([2H])Oc1cccc(-c2ccc(NC(=O)c3cscc3C(N)=O)cc2)c1 [6/53]")
"> 10000 nM"
>>> value_reported("[2H]C([2H])([2H])Oc1cccc(-c2c(F)c(F)c(NC(=O)c3ccccc3C(=O)O)c(F)c2F)c1 [6/20]")
"< 100 nM"
>>> value_reported("[2H]C([2H])([2H])Oc1cccc(-c2c(F)c(F)c(NC(=O)c3ccsc3C(=O)NCCO)c(F)c2F)c1 [6/40]")
"> 10000 nM"
